Each entry below carries its recorded IC50.
test system: p-IKKa levels in L363 (NIK translocated multiple myeloma) cells; assay: Assay 2: Effect of compounds on p-IKKa levels in L363 (NIK translocated multiple myeloma) cells; type: cell-based; conditions: Homo sapiens, L-363, 6 h, read-out: Assay 2 IC50 (nM), p-IKKa (Ser 176/180) in BAFF stimulated L363 cells with MG132, 6 h; average if tested more than once

# Molecule, IC50
measured = [
    ("Cc1noc(C)c1Nc1nccc(-c2cccc(-c3cc([C@]4(O)CCN(C)C4=O)on3)n2)n1", "50 to 500 nM"),
    ("Cc1cc(C(C)Nc2nccc(-c3cccc(-c4cc([C@]5(O)CCN(C)C5=O)on4)n3)n2)on1 (stereo partly drawn)", "50 to 500 nM"),
    ("CN1CC[C@@](O)(c2cc(-c3cccc(-c4ccnc(Nc5ncnc6c5COCC6)n4)n3)no2)C1=O", "> 500 nM"),
    ("Cc1cc(Nc2nccc(-c3cccc(-c4cc([C@]5(O)CCN(C)C5=O)on4)n3)n2)cc(C)n1", "< 50 nM"),
    ("CN(C)Cc1ccc(Nc2nccc(-c3cccc(-c4cc([C@]5(O)CCN(C)C5=O)on4)n3)n2)nc1", "50 to 500 nM"),
    ("CC(Nc1nccc(-c2cccc(-c3cc([C@]4(O)CCN(C)C4=O)on3)n2)n1)c1nnc2ncccn12 (stereo partly drawn)", "50 to 500 nM"),
    ("CN1CC[C@@](O)(c2cc(-c3cccc(-c4ccnc(Nc5ccn(CCF)n5)n4)n3)no2)C1=O", "< 50 nM"),
    ("CN1CC[C@@](O)(c2cc(-c3cccc(-c4ccnc(Nc5cnn(C6CNC6)c5)n4)n3)no2)C1=O", "> 500 nM"),
    ("CN1CC[C@@](O)(c2cc(-c3cccc(-c4ccnc(Nc5cnn(C)c5Cl)n4)n3)no2)C1=O", "< 50 nM"),
    ("CN1CC[C@@](O)(c2cc(-c3cccc(-c4ccnc(Nc5cn(C)nc5F)n4)n3)no2)C1=O", "< 50 nM"),
    ("CN1CC[C@@](O)(c2cc(-c3cccc(-c4ccnc(Nc5cnn6cccnc56)n4)n3)no2)C1=O", "< 50 nM"),
    ("[2H]C1([2H])N(C)C(=O)[C@](O)(c2cc(-c3cccc(-c4ccnc(Nc5cnn(C)c5)n4)n3)no2)C1([2H])[2H]", "< 50 nM"),
    ("CN1CC[C@@](O)(c2cc(-c3cccc(-c4ccnc(Nc5cnn(C)c5C5CC5)n4)n3)no2)C1=O", "< 50 nM"),
    ("CN1C(=O)[C@](O)(c2cc(-c3cccc(-c4ccnc(Nc5cnn(C)c5)n4)n3)no2)C[C@H]1C(F)(F)F", "50 to 500 nM"),
    ("CN1CC[C@@](O)(c2cc(-c3cccc(-c4nc(Nc5nn(C)cc5C#N)ncc4F)c3)no2)C1=O", "> 500 nM"),
]

---

system: p-IKKa levels in L363 (NIK translocated multiple myeloma) cells; test: Assay 2: Effect of compounds on p-IKKa levels in L363 (NIK translocated multiple myeloma) cells; type: cell-based; details: Homo sapiens, L-363, 6 h, read-out: Assay 2 IC50 (nM), p-IKKa (Ser 176/180) in BAFF stimulated L363 cells with MG132, 6 h; average if tested more than once
Each entry below carries its recorded IC50.

# Compound, IC50
data = [
    ("C[C@@H](O)[C@H](Nc1nccc(-c2cccc(-c3cc([C@]4(O)CCN(C)C4=O)on3)n2)n1)c1ccccc1", "50 to 500 nM"),
    ("CN1CC[C@@](O)(c2cc(-c3cccc(-c4ccnc(NC[C@H]5CCO5)n4)n3)no2)C1=O", "> 500 nM"),
    ("[2H]c1cc(-c2cccc(-c3cc([C@]4(O)CCN(C)C4=O)on3)n2)nc(Nc2ccn(CC)n2)n1", "< 50 nM"),
    ("COc1nn(C(CO)CO)cc1Nc1nccc(-c2cccc(-c3cc([C@]4(O)CCN(C)C4=O)on3)n2)n1", "50 to 500 nM"),
    ("[2H]C1([2H])N(C)C(=O)[C@](O)(c2cc(-c3cccc(-c4ccnc(Nc5cnn(CC)c5)n4)n3)no2)C1([2H])[2H]", "< 50 nM"),
    ("C[C@H]1Cn2nc(Nc3nccc(-c4cccc(-c5cc([C@]6(O)CCN(C)C6=O)on5)n4)n3)cc2CO1 (single isomer, unassigned)", "50 to 500 nM"),
    ("CN1CC[C@@](O)(c2cc(-c3cccc(-c4ccnc(NC5CC(C(F)(F)F)C5)n4)n3)no2)C1=O (stereo partly drawn)", "> 500 nM"),
    ("Cc1cnccc1Nc1nccc(-c2cccc(-c3cc([C@]4(O)CCN(C)C4=O)on3)n2)n1", "> 500 nM"),
    ("CN1CC[C@@](O)(c2cc(-c3cccc(-c4ccnc(Nc5nnnn5C)n4)n3)no2)C1=O", "> 500 nM"),
    ("CN1CC(F)(F)[C@@](O)(c2cc(-c3cncc(-c4ccnc(Nc5ccn(C)n5)n4)n3)no2)C1=O", "50 to 500 nM"),
    ("CN1CC[C@@](O)(c2cc(-c3cccc(-c4ccnc(Nc5ccnn5C)n4)n3)no2)C1=O", "< 50 nM"),
    ("Cc1c(Nc2nccc(-c3cccc(-c4cc([C@]5(O)CCN(C)C5=O)on4)n3)n2)cnn1CC(C)(C)O", "< 50 nM"),
    ("Cc1cnc(C(C)Nc2nccc(-c3cccc(-c4cc([C@]5(O)CCN(C)C5=O)on4)n3)n2)o1 (stereo partly drawn)", "50 to 500 nM"),
    ("CN1CC[C@@](O)(c2cc(-c3cccc(-c4ccnc(Nc5cnn6c5OCC(C)(C)C6)n4)n3)no2)C1=O", "< 50 nM"),
    ("CN1CC[C@@](O)(c2cc(-c3cccc(-c4ccnc(N[C@H]5CCOC5)n4)c3)no2)C1=O", "> 500 nM"),
]

---

Each entry below carries its recorded IC50.
system: p-IKKa levels in L363 (NIK translocated multiple myeloma) cells; experiment: Assay 2: Effect of compounds on p-IKKa levels in L363 (NIK translocated multiple myeloma) cells; assay type: cell-based; conditions: Homo sapiens, L-363, 6 h, read-out: Assay 2 IC50 (nM), p-IKKa (Ser 176/180) in BAFF stimulated L363 cells with MG132, 6 h; average if tested more than once

# Compound, IC50
measured = [
    ("Cc1nn(C)c(C)c1Nc1nccc(-c2cccc(-c3cc([C@]4(O)CCN(C)C4=O)on3)n2)n1", "> 500 nM"),
    ("CC(C)[C@H](Nc1nccc(-c2cccc(-c3cc([C@]4(O)CCN(C)C4=O)on3)n2)n1)c1cnn(C)c1 (single isomer, unassigned)", "50 to 500 nM"),
    ("C[C@@H](Nc1nccc(-c2cccc(-c3cc([C@]4(O)CCN(C)C4=O)on3)n2)n1)C(=O)N1CC(C)(F)C1", "> 500 nM"),
    ("CNC(=O)c1cc(Nc2nccc(-c3cccc(-c4cc([C@]5(O)CCN(C)C5=O)on4)n3)n2)nn1C(C)C", "< 50 nM"),
    ("Cc1ccn2cnnc2c1Nc1nccc(-c2cccc(-c3cc([C@]4(O)CCN(C)C4=O)on3)n2)n1", "> 500 nM"),
    ("C[C@H](Nc1nccc(-c2cccc(-c3cc([C@]4(O)CCN(C)C4=O)on3)n2)n1)c1cnc2ccccn12 (single isomer, unassigned)", "50 to 500 nM"),
]

---

tested on: p-IKKa levels in L363 (NIK translocated multiple myeloma) cells; assay: Assay 2: Effect of compounds on p-IKKa levels in L363 (NIK translocated multiple myeloma) cells; type: cell-based; conditions: Homo sapiens, L-363, 6 h, read-out: Assay 2 IC50 (nM), p-IKKa (Ser 176/180) in BAFF stimulated L363 cells with MG132, 6 h; average if tested more than once
Each entry below carries its recorded IC50.
Assay endpoint: IC50

# Compound, Target, Experimental value
data = [
    ("Cc1nccc(Nc2nccc(-c3cccc(-c4cc([C@]5(O)CCN(C)C5=O)on4)n3)n2)c1F", "p-IKKa levels in L363 (NIK translocated multiple myeloma) cells", "< 50 nM"),
    ("CN1CC[C@@](O)(c2cc(-c3cccc(-c4ccnc(Nc5cnn6ccncc56)n4)n3)no2)C1=O", "p-IKKa levels in L363 (NIK translocated multiple myeloma) cells", "< 50 nM"),
    ("CN1CC[C@@](O)(c2cc(-c3cccc(-c4ccnc(Nc5ccn(CC6CCOCC6)n5)n4)n3)no2)C1=O", "p-IKKa levels in L363 (NIK translocated multiple myeloma) cells", "< 50 nM"),
    ("CN1CC[C@@](O)(c2cc(-c3cccc(-c4ccnc(N[C@@H]5CCSC5)n4)n3)no2)C1=O (single isomer, unassigned)", "p-IKKa levels in L363 (NIK translocated multiple myeloma) cells", "50 to 500 nM"),
    ("CN1CC[C@@](O)(c2cc(-c3cccc(-c4ccnc(Nc5nn(C)c6ncccc56)n4)c3)no2)C1=O", "p-IKKa levels in L363 (NIK translocated multiple myeloma) cells", "> 500 nM"),
    ("CN1CC[C@@](O)(c2cc(-c3cccc(-c4ccnc(Nc5cnn6ncccc56)n4)n3)no2)C1=O", "p-IKKa levels in L363 (NIK translocated multiple myeloma) cells", "< 50 nM"),
    ("CNC(=O)[C@H](C)Nc1nccc(-c2cccc(-c3cc([C@]4(O)CCN(C)C4=O)on3)n2)n1", "p-IKKa levels in L363 (NIK translocated multiple myeloma) cells", "50 to 500 nM"),
]
